target: Sirtuin 6 (SIRT6) (Homo sapiens); construct: recombinant GST-tagged human SIRT6; experiment: HPLC deacetylation assay with H3K9Ac peptide (activation); immunoblot with core histones; type: biochemical
Sequence (Q8N6T7 2-355): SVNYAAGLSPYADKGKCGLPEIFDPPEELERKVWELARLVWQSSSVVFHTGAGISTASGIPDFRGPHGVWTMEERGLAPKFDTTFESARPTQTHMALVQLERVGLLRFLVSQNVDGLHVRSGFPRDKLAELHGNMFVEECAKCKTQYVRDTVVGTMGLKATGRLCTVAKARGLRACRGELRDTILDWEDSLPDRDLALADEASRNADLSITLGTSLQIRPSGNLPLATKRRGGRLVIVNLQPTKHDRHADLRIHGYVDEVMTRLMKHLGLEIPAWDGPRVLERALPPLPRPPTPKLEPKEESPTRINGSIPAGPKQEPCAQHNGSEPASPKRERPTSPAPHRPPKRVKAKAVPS
Readout Kind: pEC50
pEC50 is a log-scale quantity: -log10 of the concentration expressed in molar.

So, O=c1oc2c(cc1O)oc(=O)c1cc(O)c(O)c(O)c12 [Galloflavin] ? Its pEC50 was 4.10
